# Test system: rodent lifetime carcinogenesis bioassay, tumor incidence TD50
# PROTOCOL_SUMMARY: carcinogenic potency in animals, long-term in vivo studies, CPDB compilation (AID 1745844)
# CONDITION_PARAMETERS: mouse; strain C3H (MTV+); males; in drinking water; site: stomach, glandular; lesion: adenocarcinoma; dosed 30 weeks; study length 54 weeks
OBSERVED_PROPERTY: TD50

[[record]]
compound_structure = "CN(N=O)C(N)=O"
reported_value = "6.19 mg/kg/day"


====

# Tested on: rodent lifetime carcinogenesis bioassay, tumor incidence TD50
# PROTOCOL_SUMMARY: carcinogenic potency in animals, long-term in vivo studies, CPDB compilation (AID 1745844)
# CONDITION_PARAMETERS: mouse; strain C57BL/6; males; in feed; site: pituitary gland; lesion: adenocarcinoma; dosed 125 weeks; study length 153 weeks
OBSERVED_PROPERTY: TD50 (mg/kg/day)

[[record]]
compound_structure = "CC/C(=C(/CC)c1ccc(O)cc1)c1ccc(O)cc1"
assay_target = "rodent lifetime carcinogenesis bioassay, tumor incidence TD50"
unit_tag = "mg/kg/day"
reported_value = 1.42

